Biological target: Protein deacetylase HDAC6 (Homo sapiens, UniProt Q9UBN7)
Sequence (Q9UBN7 whole entry): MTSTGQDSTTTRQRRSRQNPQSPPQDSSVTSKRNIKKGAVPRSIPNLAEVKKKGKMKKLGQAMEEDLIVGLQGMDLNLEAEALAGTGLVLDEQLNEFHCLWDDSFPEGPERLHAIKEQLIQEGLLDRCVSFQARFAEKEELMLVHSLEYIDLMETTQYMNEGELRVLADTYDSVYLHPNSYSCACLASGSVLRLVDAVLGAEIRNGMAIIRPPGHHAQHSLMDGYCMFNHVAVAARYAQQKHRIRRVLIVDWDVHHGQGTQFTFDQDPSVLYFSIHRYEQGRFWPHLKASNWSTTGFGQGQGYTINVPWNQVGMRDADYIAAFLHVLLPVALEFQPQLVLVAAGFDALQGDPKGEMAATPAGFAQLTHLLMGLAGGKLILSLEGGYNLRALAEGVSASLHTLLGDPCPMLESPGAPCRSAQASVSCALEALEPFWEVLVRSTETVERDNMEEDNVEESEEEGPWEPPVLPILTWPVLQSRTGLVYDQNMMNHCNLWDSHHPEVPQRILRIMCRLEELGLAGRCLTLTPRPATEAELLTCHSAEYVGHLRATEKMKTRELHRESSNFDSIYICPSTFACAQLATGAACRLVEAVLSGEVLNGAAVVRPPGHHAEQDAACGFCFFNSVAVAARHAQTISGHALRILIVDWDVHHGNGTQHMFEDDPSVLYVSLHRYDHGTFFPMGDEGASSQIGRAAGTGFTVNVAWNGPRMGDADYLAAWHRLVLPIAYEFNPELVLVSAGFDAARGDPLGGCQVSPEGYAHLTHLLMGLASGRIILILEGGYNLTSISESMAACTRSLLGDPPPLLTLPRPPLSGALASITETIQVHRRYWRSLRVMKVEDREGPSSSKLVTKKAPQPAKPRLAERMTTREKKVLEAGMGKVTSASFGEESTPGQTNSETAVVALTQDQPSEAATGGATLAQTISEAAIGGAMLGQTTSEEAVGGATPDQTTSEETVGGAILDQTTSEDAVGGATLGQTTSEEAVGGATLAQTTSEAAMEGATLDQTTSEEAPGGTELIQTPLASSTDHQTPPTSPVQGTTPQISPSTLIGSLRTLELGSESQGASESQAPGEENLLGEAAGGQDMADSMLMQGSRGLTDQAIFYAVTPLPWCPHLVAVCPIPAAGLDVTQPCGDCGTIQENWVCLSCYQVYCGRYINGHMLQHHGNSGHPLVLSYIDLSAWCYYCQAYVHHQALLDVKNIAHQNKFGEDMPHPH
Test: Inhibition of recombinant human HDAC6 using Cbz-(Ac)Lys-AMC as substrate preincubated for 90 mins followed by trypsin addition measured after 20 mins by fluorescence assay
Conditions: read-out: IC50
Recorded IC50 determines the group label, using lo: < 0.4 µM; med: ≥ 0.4 µM and < 2 µM; hi: ≥ 2 µM

GET /class?item= `COc1ccc(C(=O)NO)cc1NC(=O)c1ccccc1Cl`
hi

GET /class?item= `COc1ccc(C(=O)NO)cc1NC(=O)c1ccccc1`
hi

Band for `Cc1ccc(C(=O)NO)cc1NC(=O)c1ccc2ccccc2n1` ?
lo

For the record `CCOc1ccc(C(=O)NO)cc1NC(=O)c1ccc(-c2ccccc2)cc1` , report the class its IC50 corresponds to.
med

Please classify: `O=C(NO)c1ccc(F)c(NC(=O)c2ccccc2)c1`
med

State the class of the compound shown: CC1Sc2ccc(C(=O)NO)cc2NC1=O (stereo not given)
hi

Record `O=C(NO)c1cccc(N(Cc2ccccc2)Cc2ccccc2)c1` — which class?
hi

# classify by IC50 band: `O=C(NO)c1ccc(C(F)(F)F)c(NC(=O)c2ccccc2)c1`
lo

Categorize the following entry: `COc1ccc(C(=O)NO)cc1NC(=O)c1ccc(Cl)cc1Cl`
hi

Class? Entry: `Cc1ccc(C(=O)NO)cc1NC(=O)c1ccccc1`
med

Determine which band this compound sits in: `CCOc1ccc(C(=O)Nc2cc(C(=O)NO)ccc2OC)cc1`
med

Field: class (IC50) — entry: `O=C(NO)c1ccc(Cl)c(NC(=O)c2ccc(Cl)cc2Cl)c1`
med

Which category fits this record: `O=C(NO)c1ccc(Cl)c(NC(=O)c2cccc(OCc3ccccc3)c2)c1`
med

Classify this compound: `COc1ccc(C(=O)Nc2cc(C(=O)NO)ccc2Cl)cc1`
lo

Could you tell me which band `COc1ccc(C(=O)NO)cc1NC(=O)c1ccc(Cl)cc1` belongs to?
med

Record `COc1ccc(C(=O)NO)cc1NC(=O)Cc1ccccc1` — which class?
hi

Could you place `O=C(NO)c1ccc(Cl)c(NC(=O)c2ccc(Cl)cc2)c1` in its proper category? Many thanks.
lo

Form: Item = `O=C(NO)c1ccc(Cl)c(NC(=O)c2ccc(Oc3ccccc3)cc2)c1` ; Class = ?
lo

Bin? `O=C(NO)c1ccc(Cl)c(NC(=O)c2cccc(Oc3ccccc3)c2)c1`
lo

---

Molecular target: Histone deacetylase 8 (Homo sapiens)
Sequence (Q9BY41 whole entry): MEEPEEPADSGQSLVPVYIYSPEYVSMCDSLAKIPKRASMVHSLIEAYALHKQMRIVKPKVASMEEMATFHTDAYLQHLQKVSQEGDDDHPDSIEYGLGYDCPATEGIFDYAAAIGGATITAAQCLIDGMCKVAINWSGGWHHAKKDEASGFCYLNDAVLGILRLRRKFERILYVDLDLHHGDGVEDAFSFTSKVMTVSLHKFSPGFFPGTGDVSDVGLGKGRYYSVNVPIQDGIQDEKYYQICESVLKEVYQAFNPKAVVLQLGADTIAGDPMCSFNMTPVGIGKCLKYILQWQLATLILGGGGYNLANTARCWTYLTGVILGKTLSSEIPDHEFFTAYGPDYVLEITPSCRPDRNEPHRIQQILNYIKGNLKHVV
Experiment: Inhibition of recombinant human HDAC8 using Fluor de Lys as substrate preincubated for 90 mins followed by BML-KI176 addition measured after 45 mins by fluorescence assay
Conditions: read-out: IC50
endpoint-label: IC50 (µM)
Quick reminder: number only, in µM, skip the unit.

Please respond with reported IC50 (system Histone deacetylase 8 (Homo sapiens)) for `COc1ccc(C(=O)NO)cc1NC(=O)c1ccccc1` .
0.0883

Recall the reported IC50 of `O=C(NO)c1ccc(Cl)c(NC(=O)c2ccc(Cl)cc2Cl)c1` when tested on Histone deacetylase 8 (Homo sapiens).
1.18

Fill: IC50 (Histone deacetylase 8 (Homo sapiens)) for this compound `CCOc1ccc(C(=O)NO)cc1NC(=O)c1ccccc1`
0.172

State recorded IC50 with Histone deacetylase 8 (Homo sapiens), entry `O=C(NO)c1ccc(Cl)c(NC(=O)c2cccc(OCc3ccccc3)c2)c1` , no comment.
0.214

Lab note: Histone deacetylase 8 (Homo sapiens) assay, enter IC50 for `O=C(NO)c1ccc(Cl)c(NC(=O)c2ccc(Cl)cc2)c1` here
0.292

Look up and report measured IC50 (Histone deacetylase 8 (Homo sapiens)) for the following compound: `O=C(NO)c1ccc2ccccc2n1`
0.582

Answer with IC50 of `COc1ccc(C(=O)NO)cc1NC(=O)Cc1ccccc1` measured for Histone deacetylase 8 (Homo sapiens).
0.512

Provide measured IC50 on Histone deacetylase 8 (Homo sapiens) for `O=C1CCSc2ccc(C(=O)NO)cc2N1` please.
0.62

Write IC50 of `O=C(NO)c1cccc(NCc2ccccc2)c1` ; system used: Histone deacetylase 8 (Homo sapiens)
0.143

Using Histone deacetylase 8 (Homo sapiens) as the test system, report measured IC50 of `O=C(NO)c1ccc(Cl)c(NC(=O)c2ccccc2)c1` .
0.12

GET IC50 | system: Histone deacetylase 8 (Homo sapiens) | item: `O=C(NO)c1ccc(F)c(NC(=O)c2ccccc2)c1`
0.318

Please tell me the measured IC50 for CC1Sc2ccc(C(=O)NO)cc2NC1=O (centres undefined) ; system: Histone deacetylase 8 (Homo sapiens).
0.97

Under Histone deacetylase 8 (Homo sapiens): report IC50 of `CCOc1ccc(C(=O)NO)cc1NC(=O)c1ccc(-c2ccccc2)cc1` .
0.149

Provide the reported IC50 (system: Histone deacetylase 8 (Homo sapiens)) for `COc1ccc(C(=O)NO)cc1NC(=O)c1ccc(Cl)cc1Cl`
0.548
